target: HLA-A*03:01; experiment: IEDB peptide-MHC binding, purified MHC/direct/fluorescence; filed as Kd, often an IC50 or EC50 that approximates it; bounds were set here for any values at or beyond the usual limits of such assays; details: source organism: Bacillus thuringiensis
result.type: pKd
Here pKd is given on a logarithmic scale as minus log10 of the concentration in mol/L.

[Q] Please tell me: pKd of TMKPHTFNK , system HLA-A*03:01?
[A] 6.92

---

target: HLA-B*40:02; experiment: IEDB peptide-MHC binding, purified MHC/competitive/radioactivity; filed as Kd, often an IC50 or EC50 that approximates it; bounds were set here for any values at or beyond the usual limits of such assays; conditions: source organism: SARS coronavirus Tor2
result.type: Kd
Value and unit, in that order.

Please review the following examples before continuing.
sequence.text: SEAPNAKEEI
Kd: 3.35 µM

sequence.text: QELYSPLFLI
Kd: 0.0107 µM

sequence.text: FELTSMKYFV
Kd: 0.0242 µM

[Q] GET /values?readout=Kd&item= FEKMVSLLSV
[A] 0.0237 µM

[Q] GET /values?readout=Kd&item= VEAVMYMGT
[A] 1.32 µM

[Q] GET /values?readout=Kd&item= REGVFVFNGT
[A] 0.274 µM
